- TARGET OF ASSAY: Tyrosine-protein phosphatase non-receptor type 1 (Homo sapiens)
- Sequence (whole entry): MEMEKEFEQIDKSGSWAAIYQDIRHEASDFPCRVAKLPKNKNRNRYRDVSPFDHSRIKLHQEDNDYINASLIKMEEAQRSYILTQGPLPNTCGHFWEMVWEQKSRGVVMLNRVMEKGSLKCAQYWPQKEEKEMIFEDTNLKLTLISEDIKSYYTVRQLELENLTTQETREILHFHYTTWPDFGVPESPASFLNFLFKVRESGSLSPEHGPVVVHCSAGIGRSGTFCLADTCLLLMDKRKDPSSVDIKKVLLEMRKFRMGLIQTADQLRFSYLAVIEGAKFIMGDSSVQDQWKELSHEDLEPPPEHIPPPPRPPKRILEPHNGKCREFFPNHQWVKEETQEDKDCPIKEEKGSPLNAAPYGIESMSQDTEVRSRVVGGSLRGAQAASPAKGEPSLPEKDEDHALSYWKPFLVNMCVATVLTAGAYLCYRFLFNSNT
- METHOD SUMMARY: Inhibition of GST-tagged recombinant human PTP1B at 100 uM
MEASURED ENDPOINT: inhibition (%)

MOLECULE: O=C(N[C@H](Cc1ccccc1)C(=O)O)c1ccc(Cn2c(Cc3ccccc3)nc3ccccc32)cc1
TARGET OF ASSAY: Tyrosine-protein phosphatase non-receptor type 1 (Homo sapiens)
UNITS SYMBOL: %
NUMERIC READOUT: 53.4

[a] O=C(O)CC(CC(=O)c1ccccc1)c1ccc(CN(Cc2ccc3c(c2)OCO3)c2ccc(F)cc2)cc1 (centres undefined)
[b] O=C(N[C@H](Cc1ccccc1)C(=O)O)c1ccc(CN(Cc2ccccc2)Cc2ccccc2)cc1
q: Just curious, which one has the larger inhibition reading, a or b ? Identify your pick by its label.
a: b
(b: 95%, a: 59.1%)
